assay: Half life in mouse plasma at 1 uM; assay type: ADME, cell-free
Each entry below lists one item and its recorded half-life at 1 µM value.

Take a look at these entries with their results.
>>> result("C=CC(=O)NC1CCN(S(=O)(=O)c2ccc(C(=O)N[C@@H]3C[C@H]3c3ccccc3)cc2)CC1 (racemic)")
"> 6 h"
>>> result("C=CC(=O)NC1CN(S(=O)(=O)c2ccc(NC(=O)OCc3ccccc3)cc2)C1")
"> 6 h"
>>> result("C=CC(=O)NC1CCN(S(=O)(=O)c2ccc(C(=O)NC3Cc4ccccc4C3)cc2)CC1")
"> 6 h"
>>> result("C=CC(=O)NC1CCN(S(=O)(=O)c2ccc(C(=O)NCCc3ccc(OC)cc3)cc2)CC1")
"> 6 h"
>>> result("C=CC(=O)NC1CCN(S(=O)(=O)c2ccc(C(=O)NCCc3cccc4c3OCC4)cc2)CC1")
"> 6 h"

// half-life at 1 µM lookup, key: C=CC(=O)NC1CCN(S(=O)(=O)c2ccc(C(=O)NCCc3cccc(Cl)c3)cc2)CC1
> 6 h

// half-life at 1 µM lookup, key: C=CC(=O)NC1CCN(S(=O)(=O)c2ccc(C(=O)NCCCc3ccccc3)cc2)CC1
> 6 h

// half-life at 1 µM lookup, key: C=CC(=O)NCC1CCN(S(=O)(=O)c2ccc(NC(=O)OCc3ccccc3)cc2)CC1
> 6 h

// half-life at 1 µM lookup, key: C=CC(=O)NC1CCN(S(=O)(=O)c2ccc(C(=O)NCCc3ccc4ccccc4c3)cc2)CC1
> 6 h
